Source of measurements: the supplement of paper PMC9170038

Test system: MS2 coat protein
ASSAY METHOD TEXT: apparent KD of MS2 coat protein; designed switch direction (-1 OFF switch, 1 ON switch): -1; higher = weaker reporter binding
SETUP CONDITIONS: Eterna round: R95; input ligand: microRNA oligo, concentration not stated
PROPERTY NAME: apparent KD of MS2 coat protein

SEQUENCE TEXT: CUCUUGUUAGGAUAUCAAACUGGCAGCGGAGCUGGCAGAAGUGAGAAGGGACAUGAGGAUCACCCAUGUAAGAA [Aristeza] (puzzle: Exclusion 4)
RESULT: 70.2 nM
//
SEQUENCE TEXT: GGAAUACAUGAGGAUCACCCAUGUAAGGAUAUGCUGAAUAUUACGGAAUAAACGUGCAGCAGAAGGUACAAAGG [Mat - Mod of my Eli Mod D47] (puzzle: Exclusion 1)
RESULT: 83.4 nM
//
SEQUENCE TEXT: GAGGAGCAAGGAUAUACGAGGAGAGGGAAGAGAGGAGAGAGACAUGAGGAUCACCCAUGUAGAAGGUGCAAGGG [JR_Exclu2_Sub093] (puzzle: Exclusion 2)
RESULT: 131 nM

* * *

Test system: MS2 coat protein
ASSAY METHOD TEXT: apparent KD of MS2 coat protein; designed switch direction (-1 OFF switch, 1 ON switch): 1; higher = weaker reporter binding
SETUP CONDITIONS: input ligand: none
The entries below are paired with their reported apparent KD of MS2 coat protein.
PROPERTY NAME: apparent KD of MS2 coat protein

SEQUENCE TEXT: UUGAAGAAUUAAGGAUAUCGAGUCAAGAUGUUAAACAUGAGGAUCACCCAUGUGGGUUGCGGUAUCGAGAAGGUAAAUAACAAG [Mat - Same State NG 2 - JL mod - D53] (Eterna round: R96, puzzle: Same State NG 2)
RESULT: 38.2 nM

SEQUENCE TEXT: ACAUGAGACGGAGGAUAUCUUGUACCUACAUGUGACAUGAGGAUCACCCAUGUGGUAAGUAUGAUAGAGAAGGCCGAGAUAUGU [Equivalance 57 - Jieux - Same State NG 2] (Eterna round: R96, puzzle: Same State NG 2)
RESULT: 25.4 nM

SEQUENCE TEXT: UAUUUAAUCGUAGGAUAUAGAAUGAAAUUUGUACUAGAAGGACGUUACAUGAGGAUCACCCAUGUGGUAAGUGGGACAUAGUUU [JR_SSNG1_Sub036] (Eterna round: R96, puzzle: Same State NG 1)
RESULT: 82.2 nM

SEQUENCE TEXT: AUUUUAGUCAGAGGAUAUUGUUUAUCUCUAUUACAAGAAGGCUGAUCUUACUACCCACUUAUGAAACAUGAGGAUCACCCAUGU [JR_SSNG1_Sub016] (Eterna round: R96, puzzle: Same State NG 1)
RESULT: 25.8 nM

* * *

Tested on: K4 kissing-loop RNA reporter;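 also: bound reporter read as fluorescence of individual clusters on recovered sequencing chips by microscopy, with normalized cluster intensities fitted with a binding model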
ASSAY METHOD TEXT: apparent KD of K4 kissing-loop reporter; higher = weaker reporter binding
SETUP CONDITIONS: Eterna round: R107; input ligand: arginine 13.2 mM
The entries below are paired with their reported apparent KD of K4 kissing-loop reporter.

SEQUENCE TEXT: UCGUUAAAAGCGGCCGCCACUGCCAGAGCUCUGGAAAAGGCUGGAGUGAUGUUCUGCCUAGUAGACAGGACCGGGCUAUUGGAUU [theeternabot_sameState_KL_Trp_B_29]
UNIT DESCRIPTOR: µM
apparent KD of K4 kissing-loop reporter: 0.422
--
SEQUENCE TEXT: GGAUAGGAUAGAGGAUAUGGCUUACGCAGAAAUAACUUGUUGUGUUUAUCCAUAGGGAGUGAUGUUCCAGAAGGCUGUCCUAUCG [MatMod 18 - Jieux - Exclusion - FMN B]
UNIT DESCRIPTOR: µM
apparent KD of K4 kissing-loop reporter: 0.204
--
SEQUENCE TEXT: AGGCACGAGCAAGGAUAUUGAGUAGAGUGAUGUUCUGCCUGGGUUGGCUCGAAAGAGCCUUCUCAGCGAGAAGGUGCUCGUGCCU [#2 Same State - FMN A Attempt #22 (HarryS)]
UNIT DESCRIPTOR: µM
apparent KD of K4 kissing-loop reporter: 0.603
--
SEQUENCE TEXT: AAUUUUAAUAAUAAAUAAUAAAUAAAUGAUACCAGUAUUUUUUUUUACCCUUGGCAGCGUAUAUAAGGGCAGUGAUGUUGUCAAA [whbob_SS_Theo_A_w58]
UNIT DESCRIPTOR: µM
apparent KD of K4 kissing-loop reporter: 0.136
--
SEQUENCE TEXT: GCCGUAGAUUGAAGGAGCGGUAUGGGCGUUGGCUGAGUGAUGUUCAGGGAAAGUGGCUUCUACCAGGUAGGUCGCAAUCUACGGC
UNIT DESCRIPTOR: µM
apparent KD of K4 kissing-loop reporter: 0.129
--
SEQUENCE TEXT: UCGCGUCUGUGAGGAUAUCAGAACAGAGUGAUGUUCUGUCAACGCCCAGUGAUGUUGGAUGCGAUCUGAGAAGGCACUGGGCGCA [Same State FMN B GF 9]
UNIT DESCRIPTOR: µM
apparent KD of K4 kissing-loop reporter: 0.865

* * *

Tested on: MS2 coat protein
ASSAY METHOD TEXT: apparent KD of MS2 coat protein, switch OFF state (with FMN for OFF switches, without FMN for ON switches); designed switch direction (-1 OFF switch, 1 ON switch): -1; higher = weaker reporter binding
SETUP CONDITIONS: FMN input: 0 or 200 uM; Eterna round: R93 (includes R88 designs)

SEQUENCE TEXT: AAGAAACAUGAGGAUCACCCAUGUGAGGAUAUCGAAAAGAAAAGAAAAGAAAGAAGAAUGAGAAGGCACAAAGG [Shed—]
apparent KD of MS2 coat protein (nM): 29.8
//
SEQUENCE TEXT: AAAAAACAUGAGGAUCACCCAUGUCAGGAUAUACAAAAAUAAAUAAAAAUAAAAUAAAGUAGAAGGGACAAAAA [May 9]
apparent KD of MS2 coat protein (nM): 36.9
//
SEQUENCE TEXT: GCUUGUCUAGGAUAUACAUGAGGAUCACCCAUGUGAGAGAAAAAAGUGAGAAAGAAAAGUAGAAGGAGGUGAGG [salish99-ex3-81]
apparent KD of MS2 coat protein (nM): 29.7
//
SEQUENCE TEXT: AAGAUCAGAGGAUAUACAGAAGGUGAUGAAAACAUCGCCAAACAUGAGGAUCACCCAUGUAGAAGGCUGAUCAA [JL EX2 2]
apparent KD of MS2 coat protein (nM): 204
//
SEQUENCE TEXT: ACCGAUCGAGGAUAUACAUGAGGAUCACCCAUGUAACCCAGAAGAAAGGCCUCAGGAUGUAGAAGGCGACGCAA [JR_Exc003_Sub406]
apparent KD of MS2 coat protein (nM): 17.7
//
SEQUENCE TEXT: GAAAAUCGAGGAUAUACAUGAGGAUCACCCAUGUCAAAAAAUGACUACACAAAAGAAAGUAGAAGGCGAUAAAG [Mat - Exclusion 3 - Mayanna mod - D130]
apparent KD of MS2 coat protein (nM): 31.2
//
SEQUENCE TEXT: AAAAAACAUGAGGAUCACCCAUGUAAGGAUAUGCUCAAGCGAAAAAGCACAAAAAAGAGCAGAAGGUACAAAAA [66%, Wbt, 41]
apparent KD of MS2 coat protein (nM): 31
//
SEQUENCE TEXT: AAGAAGUGAGGAUAUGUAUCAGUAUAGUUGCCUAUACUGAUGUAGAAGGCACAUGAGGAUCACCCAUGUCCUAA [Exclusion4-cac1]
apparent KD of MS2 coat protein (nM): 30.8
//
SEQUENCE TEXT: AAAUGACAUGAGGAUCACCCAUGUCAGGAUAUGACUUGAAAAAAAAAAAAAAAACAUGUCAGAAGGGACAUGAA [Design 48: Sub-opt E]
apparent KD of MS2 coat protein (nM): 16.8

* * *

Test system: MS2 coat protein
ASSAY METHOD TEXT: apparent KD of MS2 coat protein; designed switch direction (-1 OFF switch, 1 ON switch): -1; higher = weaker reporter binding
SETUP CONDITIONS: input ligand: FMN 200 uM

SEQUENCE TEXT: AAAAUAAAGAUGCCUUAAAACAUGAGGAUCACCCAUGUGAGUAAGGAUAUCGGAACCAAUCGCGACGAGAAGGUACUCGCGUGU [Ceestemaat] (Eterna round: R96, puzzle: Exclusion NG 3)
TARGET SYSTEM: MS2 coat protein
apparent KD of MS2 coat protein [nM]: 9.87

SEQUENCE TEXT: GGUCAGCUAGGAUAUACAUGAGGAUCACCCAUGUACUGACCCAUGCGGGAAUCCGCGUGUAGAAGGAGCAAAAG [jl-ex3-4.60 ViennaUCT mod] (Eterna round: R97, puzzle: Exclusion 3)
TARGET SYSTEM: MS2 coat protein
apparent KD of MS2 coat protein [nM]: 33

SEQUENCE TEXT: AACGAGGCAGGAUAUACAUGAGGAUCACCCAUGUGCUUGCAUGGCGUGGGAAGUCAUCGUAGAAGGGCUAUGCC [EX3 #64] (Eterna round: R97, puzzle: Exclusion 3)
TARGET SYSTEM: MS2 coat protein
apparent KD of MS2 coat protein [nM]: 210

SEQUENCE TEXT: CCUUGUCUGAAGGAUAUCCGCCGAAAAGGCAAGGGAGAAGGUUAGACAUGAGGAUCACCCAUGUGCCGGUGUAA [EX6 A.3] (Eterna round: R97, puzzle: Exclusion 6)
TARGET SYSTEM: MS2 coat protein
apparent KD of MS2 coat protein [nM]: 44.2

SEQUENCE TEXT: UUAAUUAAUUGACUGCAAGAUCAACAUGAGGAUCACCCAUGUGAGGAUAUCAGCUCGAUUAGAGCUGAGAAGGCACAAGCAGUC [ExNG3/16-A1] (Eterna round: R96, puzzle: Exclusion NG 3)
TARGET SYSTEM: MS2 coat protein
apparent KD of MS2 coat protein [nM]: 80.4
